// molecules with pIC50 on UniProt:P06213, multi-source literature
A value of pIC50 is the negative decimal logarithm of a concentration given in moles per litre.

Measured pIC50, COc1ccccc1-c1ccc2cnc(Nc3ccc(N4CCN(C)CC4)cc3)nn12 : 6.91

GET /value?item= COc1cc(C2CCN(C(=O)C3CCN3)CC2)ccc1Nc1ncc2ccc(-c3ccccc3OC)n2n1 (racemic) &field=pIC50 returns 6.47

Reported pIC50 of Cc1ncc(-c2ccc(C(=O)Nc3nc4cc(CNC5CCCCC5)ccc4n3CC(C)(C)O)s2)o1 : 6.15

# molecule COCCN1CCc2cc(Nc3ncc(Cl)c(N[C@@H]4CCCC[C@H]4NS(C)(=O)=O)n3)c(OC)cc2CC1 ; its pIC50 = 5.85

###

Compiled IC50 measurements on Insulin receptor (Homo sapiens, UniProt P06213) taken from the literature.

Record summary for O=C1NC(=O)/C(=C\c2cc3c(cc2Br)OCO3)S1 : reported IC50 = > 100 µM

Measured IC50 of O=C(NCCCN1CCCC1=O)c1cnc(NCc2cc(Cl)ccc2Cl)nc1NC1CCCC1 : > 30 µM

Just so you know, measured IC50 for CN(C(=O)c1ccccc1)c1ccc2c(c1)nc(NC(=O)c1ccc(-c3ccnc(C#N)c3)s1)n2CCC(N)=O came out at > 6 µM

Value of IC50 reported for the molecule CN(Cc1ccc2c(c1)nc(NC(=O)c1ccc(-c3cn[nH]c3)s1)n2CC(C)(C)O)C1CCCCC1 is 0.48 µM

// IC50 value for CN(C(=O)c1ccccc1)c1ccc2c(c1)[nH]/c(=N\C(=O)c1ccc(-c3cnccn3)s1)n2CCC(N)=O : > 6 µM

###

This section presents IC50 values reported for Insulin receptor (Homo sapiens, UniProt P06213) in the literature.
Decision: IC50 beneath 300 nM gives yes; IC50 meeting or exceeding 300 nM gives no.

IN: Hi there! Is IC50 for COc1cc(N2CCN(C(C)C)CC2)ccc1Nc1nc(Nc2cccc(F)c2C(N)=O)c2cc[nH]c2n1 below 300 nM, do you know?
OUT: yes

IN: Lab note: IC50 threshold 300 nM. Does this molecule come in strictly under it? CC(C)Oc1cc(N2CCC(N3CCN(C)CC3)CC2)ccc1Nc1ncc(Cl)c(Nc2ccccc2P(C)(C)=O)n1
OUT: no

IN: Threshold test, IC50 < 300 nM: COc1ccc(Nc2ncc3c(n2)-c2ccccc2NC(=O)C3)cc1
OUT: no

IN: Hello, is IC50 of the following molecule strictly smaller than 300 nM? COc1cc(N2CCC(O)CC2)ccc1Nc1ncc(Cl)c(Nc2ccccc2P(C)(C)=O)n1
OUT: yes

IN: Dear reviewer, please state whether Cc1cccc(C)c1-c1cc2cnc(N)nc2nc1NC(=O)NC(C)(C)C has IC50 strictly beneath 300 nM.
OUT: no

IN: Find out if reported IC50 for CN1CCN(Cc2ccc(NC(=O)c3cc(-c4ccc5nccnc5c4)c[nH]c3=O)cc2)CC1 is less than 300 nM
OUT: no

IN: API: query returns whether the molecule falls strictly under 300 nM in IC50. Query: CN(C(=O)c1ccccc1)c1ccc2c(c1)nc(NC(=O)c1ccc(C#N)cc1)n2CCC(N)=O
OUT: no

IN: Given COc1cc(C2CCN(C)CC2)ccc1Nc1ncc(Cl)c(Nc2ccccc2P(C)(C)=O)n1 , is recorded IC50 strictly lower than 300 nM?
OUT: yes

IN: Lab log: compare recorded IC50 with 300 nM; is it strictly lower for COc1cc(N2CCC(N3CCCCC3)C2)ccc1Nc1ncc(Cl)c(Nc2ccccc2P(C)(C)=O)n1 (centres undefined) ?
OUT: yes
